Below is a list of entries, each paired with its recorded Selectivity Ratio (B/A) value.
Biological target: human GIPR (Homo sapiens, UniProt P48546)
Construct: expressed in transfected cells
Sequence (P48546 22-466): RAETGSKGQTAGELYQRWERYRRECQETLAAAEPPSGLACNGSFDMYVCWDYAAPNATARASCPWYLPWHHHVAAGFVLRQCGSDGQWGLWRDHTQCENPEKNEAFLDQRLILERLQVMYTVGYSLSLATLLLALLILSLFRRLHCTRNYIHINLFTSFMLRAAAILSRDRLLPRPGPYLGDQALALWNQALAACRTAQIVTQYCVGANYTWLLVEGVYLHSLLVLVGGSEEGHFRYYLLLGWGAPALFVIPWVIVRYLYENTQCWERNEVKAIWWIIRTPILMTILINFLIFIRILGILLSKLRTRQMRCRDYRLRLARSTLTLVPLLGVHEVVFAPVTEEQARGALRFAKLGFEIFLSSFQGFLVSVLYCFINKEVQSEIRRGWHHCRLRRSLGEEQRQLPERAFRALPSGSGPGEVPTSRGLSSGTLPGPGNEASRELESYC
Experiment: Agonist activity on human GIPR, CRE-luciferase reporter assay (increase in intracellular cAMP as indicator)
Assay type: cell-based
Details: GLP1R EC50 / GIPR EC50

Incoming: Given YAibEGTFISDYSIALDKIHQQ(Lys-(ethylene glycol)2-C15 diacid)FVNWLLAQR-NH2 [Compound 28] , state its recorded Selectivity Ratio (B/A).
Outgoing: >100,000

Incoming: Next substance up: YAibEGTFISDYSIALDKI(Lys-(ethylene glycol)2-C15 diacid)QQDFVNWLLAQRG-OH [Compound 25]
Outgoing: >100,000
